Quick reference for MIC Staphylococcus aureus (GC 4545) among some molecules
- System: Staphylococcus sp.
- Assay Details: in vitro antibacterial evaluation, MIC by broth dilution
- Format: cell-based
- Measurement Setup: broth dilution, 18 hours at 35° C.
- Source text: Methods for in vitro Antibacterial Evaluation (Table 1) […]
Numeric answer only, unit µg/mL assumed.

Solved entries:
{"Molecule": "CC(c1ccccc1)C1NC(=O)CNC(=O)C(CO)NC(=O)C(C(O)C2CNC(=N)N2C2OC(CO)C(O)C(O)C2O)NC(=O)C(C(O)C2CNC(=N)N2)NC(=O)C(Cc2ccc(OC3OC(CO)C(OC4OC(COCC=Cc5ccccc5)C(O)C(O)C4O)C(O)C3O)cc2)NC1=O (stereo not shown) [Example 242]", "MIC Staphylococcus aureus (GC 4545) / µg/mL": 4}
{"Molecule": "CC(C)=CCCC1OCC2OC(OC3C(CO)OC(Oc4ccc(CC5NC(=O)C(C(C)c6ccccc6)NC(=O)CNC(=O)C(CO)NC(=O)C(C(O)C6CNC(=N)N6C6OC(CO)C(O)C(O)C6O)NC(=O)C(C(O)C6CNC(=N)N6)NC5=O)cc4)C(O)C3O)C(O)C(O)C2O1 (stereo not shown) [Example 123]", "MIC Staphylococcus aureus (GC 4545) / µg/mL": 8}

Could you now consider this next molecule?
Read off the recorded MIC Staphylococcus aureus (GC 4545) for CC(C)CC(=O)OC1C(O)C(CO)OC(OC2C(CO)OC(Oc3ccc(CC4NC(=O)C(C(C)c5cccs5)NC(=O)CNC(=O)C(CO)NC(=O)C(C(O)C5CNC(=N)N5C5OC(CO)C(O)C(O)C5O)NC(=O)C(C(O)C5CNC(=N)N5)NC4=O)cc3)C(O)C2O)C1O (stereo not shown) [Example 265b]
8

====

- Test system: Streptococcus sp.
- Assay Details: in vitro antibacterial evaluation, MIC by broth dilution
- Assay type: cell-based
- Measurement Setup: broth dilution, inoculum 5×10^5 CFU/mL, 18 hours at 35° C.; strain GC 4565
Value Kind: MIC Streptococcus pneumoniae (GC 4565) (µg/mL)
Numeric answer only, unit µg/mL assumed.

Solved entries:
{"Compound": "COc1ccc2cc(COC3C(CO)OC(OC4C(CO)OC(Oc5ccc(CC6NC(=O)C(C(C)c7ccccc7)NC(=O)CNC(=O)C(CO)NC(=O)C(CC7CNC(=N)N7C7OC(CO)C(O)C(O)C7O)NC(=O)C(CC7CNC(=N)N7)NC6=O)cc5)C(O)C4O)C(O)C3O)ccc2c1 (stereo not shown) [Example 245a]", "System Name": "Streptococcus sp.", "MIC Streptococcus pneumoniae (GC 4565) (µg/mL)": 1}
{"Compound": "COc1ccc2cc(COC3C(OC4C(CO)OC(Oc5ccc(CC6NC(=O)C(C(C)c7ccccc7)NC(=O)CNC(=O)C(CO)NC(=O)C(C(O)C7CNC(=N)N7C7OC(CO)C(O)C(O)C7O)NC(=O)C(C(O)C7CNC(=N)N7)NC6=O)cc5)C(O)C4O)OC(CO)C(O)C3O)ccc2c1 (stereo not shown) [Example 230c]", "System Name": "Streptococcus sp.", "MIC Streptococcus pneumoniae (GC 4565) (µg/mL)": 32}

Read off the recorded MIC Streptococcus pneumoniae (GC 4565) for COc1ccc(COCC2OC(OC3C(CO)OC(Oc4ccc(CC5NC(=O)C(C(C)c6ccccc6)NC(=O)CNC(=O)C(CO)NC(=O)C(C(O)C6CNC(=N)N6C6OC(CO)C(O)C(O)C6O)NC(=O)C(C(O)C6CNC(=N)N6)NC5=O)cc4)C(O)C3O)C(O)C(O)C2O)cc1F (stereo not shown)
0.5

====

- Tested on: Staphylococcus sp.
- Assay Details: in vitro antibacterial evaluation, MIC by broth dilution
- Type: cell-based
- Measurement Setup: broth dilution, 18 hours at 35° C.
Quick reference for MIC Staphylococcus aureus-SMITH (GC 4543) among some molecules
Numeric answer only, unit µg/mL assumed.

{"Molecule": "N=C1NCC(C(O)C2NC(=O)C(Cc3ccc(OC4OC(CO)C(OC5OC6COC7(OC6C6OC8(OC56)C5CC6CC(C5)CC8C6)C5CC6CC(C5)CC7C6)C(O)C4O)cc3)NC(=O)C(CC3CCCCC3)NC(=O)CNC(=O)C(CO)NC(=O)C(C(O)C3CNC(=N)N3C3OC(CO)C(O)C(O)C3O)NC2=O)N1 (centres unmarked) [Example 106b]", "Readout Number": 8}
{"Molecule": "CC(c1ccccc1)C1NC(=O)CNC(=O)C(CO)NC(=O)C(CC2CNC(=N)N2C2OC(CO)C(O)C(O)C2O)NC(=O)C(CC2CNC(=N)N2)NC(=O)C(Cc2ccc(OC3OC(CO)C(OC4OC(CO)C(O)C(OCc5ccc(OCc6ccccc6)cc5)C4O)C(O)C3O)cc2)NC1=O (centres unmarked) [Example 246b]", "Readout Number": 64}
{"Molecule": "CC(c1ccccc1)C1NC(=O)CNC(=O)C(CO)NC(=O)C(C(O)C2CN(Cc3ccc(C(F)(F)F)cc3)C(=N)N2C2OC(CO)C(O)C(O)C2O)NC(=O)C(C(O)C2CNC(=N)N2)NC(=O)C(Cc2ccc(OC3OC(CO)C(OC4OC5COC6(OC5C(O)C4O)C4CC5CC(C4)CC6C5)C(O)C3O)cc2)NC1=O (centres unmarked) [Example 226]", "Readout Number": 8}

Read off the recorded MIC Staphylococcus aureus-SMITH (GC 4543) for CCC(C)C(=O)OC1C(CO)OC(OC2C(CO)OC(Oc3ccc(CC4NC(=O)C(C(C)c5ccccc5)NC(=O)CNC(=O)C(CO)NC(=O)C(C(O)C5CNC(=N)N5C5OC(CO)C(O)C(O)C5O)NC(=O)C(C(O)C5CNC(=N)N5)NC4=O)cc3)C(O)C2O)C(O)C1O (centres unmarked) [Example 278c]
4

====

- Test system: Streptococcus sp.
- Assay Details: in vitro antibacterial evaluation, MIC by broth dilution
- Assay type: cell-based
- Measurement Setup: broth dilution, inoculum 5×10^5 CFU/mL, 18 hours at 35° C.; strain GC 4565
Quick reference for MIC Streptococcus pneumoniae (GC 4565) among some compounds
Numeric answer only, unit µg/mL assumed.

Read off the recorded MIC Streptococcus pneumoniae (GC 4565) for CC(c1ccccc1)C1NC(=O)CNC(=O)C(CO)NC(=O)C(C(O)C2CNC(=N)N2C2OC(CO)C(O)C(O)C2O)NC(=O)C(C(O)C2CNC(=N)N2)NC(=O)C(Cc2ccc(OC3OC(CO)C(OC4OC(COCC=Cc5ccccc5)C(O)C(O)C4O)C(O)C3O)cc2)NC1=O (centres unmarked)
0.5

Read off the recorded MIC Streptococcus pneumoniae (GC 4565) for CC(c1ccccc1)C1NC(=O)CNC(=O)C(CO)NC(=O)C(C(O)C2CNC(=N)N2C2OC(CO)C(O)C(O)C2O)NC(=O)C(C(O)C2CNC(=N)N2)NC(=O)C(Cc2ccc(OC3OC(CO)C(OC4OC5COC6(CCSCC6)OC5C(O)C4O)C(O)C3O)cc2)NC1=O (centres unmarked)
0.5

====

- Tested on: Enterococcus sp.
- Assay Details: in vitro antibacterial evaluation, MIC by broth dilution
- Assay type: cell-based
- Measurement Setup: strain GC 4558; broth dilution, 18 hours at 35° C.
Quick reference for MIC Enterococcus avium (GC 4558) among some compounds
The reply should consist of the numeric value with the unit placed after it.

Solved entries:
{"Compound": "COc1cc(-c2nc3cc(CC4NC(=O)C(C(C)c5ccccc5)NC(=O)CNC(=O)C(CO)NC(=O)C(C(O)C5CNC(=N)N5C5OC(CO)C(O)C(O)C5O)NC(=O)C(C(O)C5CNC(=N)N5)NC4=O)ccc3o2)cc(OC)c1OC (stereo not shown)", "Result": "16 µg/mL"}
{"Compound": "CSc1ccc(C2OCC3OC(OC4C(CO)OC(Oc5ccc(CC6NC(=O)C(C(C)c7ccccc7)NC(=O)CNC(=O)C(CO)NC(=O)C(C(O)C7CNC(=N)N7C7OC(CO)C(O)C(O)C7O)NC(=O)C(C(O)C7CNC(=N)N7)NC6=O)cc5)C(O)C4O)C(O)C(O)C3O2)cc1 (stereo not shown)", "Result": "4 µg/mL"}
{"Compound": "CC(c1ccccc1)C1NC(=O)CNC(=O)C(CO)NC(=O)C(C(O)C2CNC(=N)N2C2OC(CO)C(O)C(O)C2O)NC(=O)C(C(O)C2CNC(=N)N2)NC(=O)C(Cc2ccc3oc(-c4ccc(OCc5ccccc5)cc4)nc3c2)NC1=O (stereo not shown)", "Result": "8 µg/mL"}

Could you now consider this next compound?
Read off the recorded MIC Enterococcus avium (GC 4558) for CC(c1ccccc1)C1NC(=O)CNC(=O)C(CO)NC(=O)C(C(O)C2CNC(=N)N2C2OC(CO)C(O)C(O)C2O)NC(=O)C(C(O)C2CNC(=N)N2)NC(=O)C(Cc2ccc(OC3OC(CO)C(OC4OC5COC(c6ccc(S(C)(=O)=O)cc6)OC5C(O)C4O)C(O)C3O)cc2)NC1=O (stereo not shown)
64 µg/mL

====

- Tested on: Escherichia coli
- Assay Details: in vitro antibacterial evaluation, MIC by broth dilution
- Format: cell-based
- Measurement Setup: 18 hours at 35° C.
Quick reference for MIC Escherichia coli (GC 4559) among some compounds

{"Compound": "CC(c1ccccc1)C1NC(=O)CNC(=O)C(CO)NC(=O)C(C(O)C2CNC(=N)N2C2OC(CO)C(O)C(O)C2O)NC(=O)C(C(O)C2CNC(=N)N2)NC(=O)C(Cc2ccc(OC3OC(CO)C(OC4OC(CO)C(O)C5OC6(CCCCCCCCCCCC6)OC45)C(O)C3O)cc2)NC1=O (centres unmarked) [Example 210a]", "System Name": "Escherichia coli", "MIC Escherichia coli (GC 4559)": ">64 µg/mL"}

Could you now consider this next compound?
System Escherichia coli. Read-out MIC Escherichia coli (GC 4559). Item CC(c1ccccc1)C1NC(=O)CNC(=O)C(CO)NC(=O)C(C(O)C2CNC(=N)N2C2OC(CO)C(O)C(O)C2O)NC(=O)C(C(O)C2CNC(=N)N2)NC(=O)C(Cc2ccc(OC3OC(CO)C(OC4OC5COC6(CCCCCCCCCCCC6)OC5C(O)C4O)C(O)C3O)cc2)NC1=O (centres unmarked) . Report value.
>64 µg/mL
